For each entry below, report its inhibition at 20 µM value.
- system tested: KRas G12D/Q61H double mutant (Homo sapiens (Human), UniProt P01116, G12D/Q61H)
- Sequence (P01116-2 other isoform, or with tags, fused parts or gaps G12D/Q61H): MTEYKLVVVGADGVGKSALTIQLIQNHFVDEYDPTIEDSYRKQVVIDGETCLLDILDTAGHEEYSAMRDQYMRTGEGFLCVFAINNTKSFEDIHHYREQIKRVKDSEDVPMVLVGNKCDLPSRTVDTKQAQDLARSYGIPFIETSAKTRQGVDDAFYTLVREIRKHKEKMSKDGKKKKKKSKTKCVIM
- experiment description: Ras GTP binding domain inhibition assay (labeled GTP)
- measurement conditions: 20 μM compound; read-out: % Inhibition at 20 μM KRas G12D Q61H

Find the recorded inhibition at 20 µM belonging to COCC1CCN(C(=O)c2csc3c(O)nc(-c4ccccn4)nc23)CC1 [drawing 2675] and report it.
25 to 50%

// query inhibition at 20 µM value for entry O=C(c1cc2nc(-c3ccccn3)nc(O)c2s1)N1CCN(c2ccccc2)CC1 [drawing 2841]
51 to 75%

Quick check: inhibition at 20 µM of O=C(O)c1cc2nc(-c3ccccn3)nc(O)c2s1 [drawing 2850] ?
51 to 75%

Data provenance is patent US10940139B2.
